# Experimental protocol: NCI Yeast Anticancer Drug Screen. Data for the sgs1 mgt1 strain (AID 161);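 note: 0% = growth of cultures given vehicle only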
# Condition description: S. cerevisiae sgs1 mgt1 strain, at 50.0 µM, stronger effect = higher value
The panel holds about 79,000 compounds, 15% with a hit somewhere; the sample as a whole holds those more often.
Property measured: growth inhibition (%)
Answer in %, number only, no unit symbol.

COc1cccc2c1C(=O)c1c(O)c3c(c(O)c1C2=O)C[C@@](O)(/C(C)=N\NC(=O)CCC(N)C(=O)O)C[C@@H]3OC1CC(N)C(O)C(C)O1 (some centres not stated) (tested in a mixture with another compound) : 0.65

Pending molecule:
Note to self: growth inhibition recorded for COc1ccc(C2=Nn3c(nc4sc(C)c(C)c4c3=O)SC2)cc1 was -3.7
